The entries below are paired with their reported pKd.
- Experimental system: Recombinant cyno B7-H3 (cyno)
- Assay overview: SPR (such as Biacore T200), against cyno B7-H3
Please express pKd as -log10 of the molar concentration.

Take a look at these entries with their results.
{"columns": ["Binder", "Assay value"],
 "data": [
  ["SCT-Da148 (antibody, V domains shown) VH: EVQLQQSGAELVKPGASVKLSCTASGVNIKDTYIHWVKQRPEQGLEWIGRIDPANGNRKYDPKFQGKATITADSSSNTAYLQLSSLTSEDTAVYYCARDGYYAPGYWGQGTTLTVSS VL: DIVMTQSQKFMSTSVGDRVSVTCKASQNVGTDVAWYQQKPGQSPKLLIYSASYRFSGVPDRFTGSGSGTDFSLAISNVQSEDLAEYFCQQYNSYPYTFGGGAKLEIK", 9.30],
  ["SCT-Da182 (antibody, V domains shown) VH: EVQLQQSGPELVKPGASMKISCKVSGFSFTGYTMNWVKQSHGKNLEWIGLINTYNGGTFYNQKFKAKATLTVDKSSSTAHMELLSLTSEDSAVYYCARSPGRYSMDYWGQGTSVTVSS VL: DIVLTQSPASLAVSLGQRATISCKASQSVDYNGYSYLNWYQQKPGQPPKLLIYPASNLESGIPARFSGSGSGTDFTLNIHPVEEEDAATYYCQQSKEDPYTFGGGTKLEIK", 8.91],
  ["SCT-Da192 (antibody, V domains shown) VH: EVQLQQSGPELVKPGASVKISCKTSGYTFTEYTMHWVKQSHGKSLEWIGVINPNNGGTTYNQKFKGKATLTVDKSSSTAYMELRSLTSEDSAVYYCARPHSLLRLRREFDYWGQGTTLTVSS VL: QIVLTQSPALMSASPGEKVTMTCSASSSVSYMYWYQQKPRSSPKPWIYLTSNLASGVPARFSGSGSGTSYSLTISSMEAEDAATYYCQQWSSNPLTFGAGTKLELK", 8.79]
]}

Below: the item to evaluate.
Prompt: Look up pKd: SCT-Da250 (antibody, V domains shown) VH: QGQMQQSGAELVKPGASVRLSCKTSGFTFSSFYISWLKQKPGQSLEWIAWIYAGPGYTSYNQKFTGKAQLTVDTSSSTAYMQFSSLTTEDSAIYYCARHVGRQRGYFDVWGAGTTVTVSS VL: DIVMTQSHKFMSTSVGDRVSITCKASQDVSTAVAWYQQKPGQSPKLLIYSASYRYTGVPDHFTVSGSGTDFTFTISSVQAEDLAVYYCQQHYSTPWTFGGGTKLEIK
Response: 9.40
